- test-system: RAC-alpha serine/threonine-protein kinase [E49C,C296S,C310S,C344S] (Homo sapiens, UniProt P31749, C296S/C310S/C344S/E49C)
- Sequence (P31749 whole entry E49C/C296S/C310S/C344S): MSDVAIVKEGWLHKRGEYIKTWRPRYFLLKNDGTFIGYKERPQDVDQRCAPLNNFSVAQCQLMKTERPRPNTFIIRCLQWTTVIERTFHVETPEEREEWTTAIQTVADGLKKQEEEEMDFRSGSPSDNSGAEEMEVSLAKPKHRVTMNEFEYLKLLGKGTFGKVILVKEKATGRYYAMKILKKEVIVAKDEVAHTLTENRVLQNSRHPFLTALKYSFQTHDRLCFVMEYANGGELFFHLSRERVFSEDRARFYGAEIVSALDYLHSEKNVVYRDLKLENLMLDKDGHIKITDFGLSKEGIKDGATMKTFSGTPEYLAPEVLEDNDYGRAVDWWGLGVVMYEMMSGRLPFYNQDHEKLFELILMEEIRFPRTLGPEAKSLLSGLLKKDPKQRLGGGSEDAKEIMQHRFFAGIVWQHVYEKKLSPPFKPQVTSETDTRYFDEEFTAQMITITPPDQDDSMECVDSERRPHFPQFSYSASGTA
- test-details: iFLik Assay
- run-parameters: pH 7.4
Quick list: log10 Kd per entry.
Hi team, quick reminder: these entries are log10 of Kd (nM).

[[record]]
molecular_string = "Fc1ccc(-n2cc(-c3ccccc3)c3c(NCc4ccccn4)ncnc32)cc1"
reported_result = 4.30


Value lookup for log10 Kd; key = `c1ccc(-c2cn(-c3ccccc3)c3ncnc(NCc4cccs4)c23)cc1`
3.34

Cool, now `O=c1[nH]ccc2nc(-c3ccc(CN4CCC(n5c(=O)[nH]c6ccccc65)CC4)cc3)c(-c3ccccc3)cc12`
2.61

Cool, now `O=c1[nH]ccc2nc(-c3ccc(CN4CCN(c5ncccn5)CC4)cc3)c(-c3ccccc3)cc12`
3.04

Cool, now `O=c1[nH]ccc2nc(-c3ccc(CN4CCc5ccccc5C4)cc3)c(-c3ccccc3)cc12`
3.78

---

- test-system: RAC-alpha serine/threonine-protein kinase [E49C,C296S,C310S,C344S] (Homo sapiens, UniProt P31749, C296S/C310S/C344S/E49C)
- test-details: iFLik Assay
- run-parameters: pH 7.4
readout-kind: pKd
In plain terms, pKd is the concentration in mol/L turned into minus its base-10 logarithm.

Completed entries (count: 2):
[[record]]
compound = "COC(=O)C1CCN(Cc2ccc(-c3nc4cc[nH]c(=O)c4cc3-c3ccccc3)cc2)CC1"
readout_kind = "pKd"
reported_result = 6.05

[[record]]
compound = "O=C(C1CCCO1)N1CCN(Cc2ccc(-c3nc4cc[nH]c(=O)c4cc3-c3ccccc3)cc2)CC1 (stereo not given)"
readout_kind = "pKd"
reported_result = 5.10


Value lookup for pKd; key = `Cc1ccc(-n2cc(-c3ccccc3)c3c(NCc4cccs4)ncnc32)cc1Cl`
3.58

Cool, now `COc1ccc(N2CCN(Cc3ccc(-c4nc5cc[nH]c(=O)c5cc4-c4ccccc4)cc3)CC2)cc1`
5.14

Cool, now `Cc1cccc(-n2cc(-c3ccccc3)c3c(NCc4cccs4)ncnc32)c1`
4.00
